Data provenance is patent US20070004760A1.

# System: Pyricularia oryzae
# Type: in vivo
# condition-context: individual active compound, 16 ppm in the spray liquor; rice 'Tai-Nong 67', protective, 6 days; untreated control 60% infection
measured-attribute: Efficacy in % of the untreated control (%)
Supply the numeric figure in %, leaving out any unit text.

Answered cases to consult:
{"columns": ["compound", "target-or-test-system", "measured-attribute", "unit-label", "value-measured"],
 "data": [
  ["CC1CCN(c2c(-c3c(F)cccc3Cl)c(Cl)nc3ncnn23)CC1 [Comparison A]", "Pyricularia oryzae", "Efficacy in % of the untreated control", "%", 59],
  ["CC1CCN(c2c(-c3c(F)cc(F)cc3F)c(Cl)nc3ncnn23)CC1 [I]", "Pyricularia oryzae", "Efficacy in % of the untreated control", "%", 67],
  ["C[C@H](Nc1c(-c2c(F)cc(F)cc2F)c(Cl)nc2ncnn12)C(F)(F)F [Comparison B]", "Pyricularia oryzae", "Efficacy in % of the untreated control", "%", 67]
]}

# evaluate next
// returns reported Efficacy in % of the untreated control for input CO/N=C(/C(=O)OC)c1ccccc1CO/N=C(\C)c1cccc(C(F)(F)F)c1 [II (trifloxystrobin)]
2
